Assay: Lopinavir intrinsic clearance by neonatal human liver microsomes
Assay type: in vitro ADME
Conditions: human, pooled neonatal human liver microsomes, pH 7.4
Test readout: microsomal CLint at 1 μM (µL/min/mg)
Numeric answer only, unit µL/min/mg assumed.

Prompt line: # microsomal CLint at 1 μM lookup, item Cc1cccc(C)c1OCC(=O)N[C@@H](Cc1ccccc1)[C@@H](O)C[C@H](Cc1ccccc1)NC(=O)[C@H](C(C)C)N1CCCNC1=O
Response line: 133

###

Test: Lopinavir intrinsic clearance by neonatal human liver microsomes
Format: in vitro ADME
Conditions: human, pooled neonatal human liver microsomes, pH 7.4
Test readout: half-life at 1 μM
Answer with the number, then the unit.

Prompt line: Returns the measured half-life at 1 μM for the input compound. Input: Cc1cccc(C)c1OCC(=O)N[C@@H](Cc1ccccc1)[C@@H](O)C[C@H](Cc1ccccc1)NC(=O)[C@H](C(C)C)N1CCCNC1=O
Response line: 52.1 min
